We begin with a simple list: items and their reported koff.
Target: T1, hIL-18Rα ECD-Fc fusion protein (human, UniProt Q13478 22-329)
T1 construct: extracellular domain; captured on Protein A sensor
T1 sequence (looked up): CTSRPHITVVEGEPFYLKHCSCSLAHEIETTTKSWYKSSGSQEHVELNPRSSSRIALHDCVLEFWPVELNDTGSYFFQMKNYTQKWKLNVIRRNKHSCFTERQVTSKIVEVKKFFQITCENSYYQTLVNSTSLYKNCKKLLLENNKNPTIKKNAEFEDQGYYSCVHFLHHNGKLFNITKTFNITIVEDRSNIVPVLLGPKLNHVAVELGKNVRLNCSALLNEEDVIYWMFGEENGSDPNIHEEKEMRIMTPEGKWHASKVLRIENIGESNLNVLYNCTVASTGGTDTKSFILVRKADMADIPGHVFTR
Assay: BLI (Octet RED96), hIL-18Rα ECD-Fc on Protein A sensor
metric name: koff (s⁻¹)

[
  {
    "binder": "IL-18 variant polypeptide LM5 (ligand, soluble, E. coli-made) YFGKLRSKLSVIRNLNDQVLFIDQGNRPLFEDMTDSDCRDNAPRTIFIISMYKWSSQRGMAVTISVKCEKISTLSCENKIISFKEMNPPDNIKDTKSDIIFFQRSVPGHDNKMQFESSSYEGYFLACEKERDLFKLILKKEDELGDRSIMFTVQNED",
    "result value": 0.0411
  },
  {
    "binder": "IL-18 variant polypeptide M40 (ligand) YFDKLKSKLSVIRNLNDQVLFIDQGNRPLFEDMTDSDCRDNAPRTIFIISMYKPSSWRGMAVTISVKCEKISTLSCENKIISFKEMNPPDWIKDTKSDIIFFQRSVPGHDNKMQFESSSYEGYFLACEKERDLFKLILKKEDELGDRSIMFTVQNED",
    "result value": 0.0121
  },
  {
    "binder": "IL-18 variant polypeptide MM4 (ligand, soluble, E. coli-made) YFPKLRSKLSVIRNLNDQVLFIDQGNRPLFEDMTDSDCRDNAPRTIFIISMYKLSTIRGMAVTISVKCEKISTLSCENKIISFKEMNPPDGIKDTKSDIIFFQRSVPGHDNKMQFESSSYEGYFLACEKERDLFKLILKKEDELGDRSIMFTVQNED",
    "result value": 0.0375
  },
  {
    "binder": "IL-18 variant polypeptide WM10 (ligand, soluble, E. coli-made) YFPKLKSKLSVIRNLNDQVLFIDQGNRPLFEDMTDSDCRDNAPRTIFIISMYKDSQPRGMAVTISVKCEKISTLSCENKIISFKEMNPPDSIKDTKSDIIFFQRSVPGHDNKMQFESSSYEGYFLACEKERDLFKLILKKEDELGDRSIMFTVQNED",
    "result value": 0.007
  },
  {
    "binder": "IL-18 variant polypeptide M16 (ligand) YFPKLRSKLSVIRNLNDQVLFIDQGNRPLFEDMTDSDCRDNAPRTIFIISMYKSSRNRGMAVTISVKCEKISTLSCENKIISFKEMNPPDGIKDTKSDIIFFQSSVPGHDNKMQFESSSYEGYFLACEKERDLFKLILKKEDELGDRSIMFTVQNED",
    "result value": 0.0177
  },
  {
    "binder": "IL-18 variant polypeptide M7 (ligand) YFPKLRSKLSVIRNLNDQVLFIDQGNRPLFEDMTDSDCRDNAPRTIFIISMYKHSTARGMAVTISVKCEKISTLSCENKIISFKEMNPPDAIKDTKSDIIFFQRSVPGHDNKMQFESSSYEGYFLACEKERDLFKLILKKEDELGDRSIMFTVQNED",
    "result value": 0.0271
  },
  {
    "binder": "IL-18 variant polypeptide M22 (ligand) YFPKLRSKLSVIRNLNDQVLFIDQGNRPLFEDMTDSDCRDNAPRTIFIISMYKYSRGRGMAVTISVKCEKISTLSCENKIISFKEMNPPDKIKDTKSDIIFFQSSVPGHDNKMQFESSSYEGYFLACEKERDLFKLILKKEDELGDRSIMFTVQNED",
    "result value": 0.0398
  },
  {
    "binder": "IL-18 variant polypeptide M24 (ligand) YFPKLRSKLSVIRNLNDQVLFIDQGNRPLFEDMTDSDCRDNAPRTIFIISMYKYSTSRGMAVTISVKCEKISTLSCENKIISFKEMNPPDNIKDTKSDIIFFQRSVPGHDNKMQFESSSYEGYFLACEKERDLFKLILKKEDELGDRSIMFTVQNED",
    "result value": 0.0451
  },
  {
    "binder": "IL-18 variant polypeptide M39 (ligand) YFPKLRSKLSVIRNLNDQVLFIDQGNRPLFEDMTDSDCRDNAPRTIFIISMYKWSPGRGMAVTISVKCEKISTLSCENKIISFKEMNPPDVIKDTKSDIIFFQLSVPGHDNKMQFESSSYEGYFLACEKERDLFKLILKKEDELGDRSIMFTVQNED",
    "result value": 0.0221
  },
  {
    "binder": "IL-18 variant polypeptide M31 (ligand) YFPKLRSKLSVIRNLNDQVLFIDQGNRPLFEDMTDSDCRDNAPRTIFIISMYKHSIHRGMAVTISVKCEKISTLSCENKIISFKEMNPPDIIKDTKSDIIFFQYSVPGHDNKMQFESSSYEGYFLACEKERDLFKLILKKEDELGDRSIMFTVQNED",
    "result value": 0.0189
  }
]
